I'd appreciate it if you could supply percent inhibition (TR-FRET) values for the items below.
# SYSTEM_TESTED: MAGE-A11:PCF11 interaction (GST-MAGE-A11 and FAM-PCF11_4) (Homo sapiens)
# Construct: GST-MAGE-A11 MHD (human MAGE-A11 MHD amino acid 218-429); made in house; host or cells: E. coli BL21(DE3)
# Sequence (P43364 218-429): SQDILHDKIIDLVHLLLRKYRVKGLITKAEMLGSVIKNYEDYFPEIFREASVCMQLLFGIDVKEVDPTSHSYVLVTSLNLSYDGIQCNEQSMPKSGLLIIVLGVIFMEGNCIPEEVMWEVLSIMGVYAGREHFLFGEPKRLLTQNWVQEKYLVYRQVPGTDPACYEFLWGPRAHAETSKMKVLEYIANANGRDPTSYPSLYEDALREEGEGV
# PROCEDURE_SUMMARY: TR-FRET primary / single point screen at 15 µM
# Type: binding
# CONDITION_DETAILS: single point TR-FRET screening of 797 quinoline compounds against MAGE-A11:PCF11

What the record says about `COc1ccc2nc3cc(Cl)ccc3c(NCCCNCc3cc4ccccc4s3)c2c1` : percent inhibition (TR-FRET) is -220.357

What the record says about `O=S(=O)(c1ccccc1)c1cnc2ccc(Cl)cc2c1N1CCN(c2ccccc2)CC1` : percent inhibition (TR-FRET) is -15.701

What the record says about `COc1ccc(O)c(CN2CCC(Nc3ccnc4cc(Cl)ccc34)CC2)c1` : percent inhibition (TR-FRET) is 7.779

What the record says about `CCOC(=O)c1cnc2c(Cl)cccc2c1NCCN1CCOCC1` : percent inhibition (TR-FRET) is -6.529

What the record says about `O=S(=O)(c1ccc(Cl)cc1)N1CCN(c2ccnc3cc(Cl)ccc23)CC1` : percent inhibition (TR-FRET) is -34.3905

What the record says about `Oc1ccccc1CN(CCCCNc1ccnc2cc(Cl)ccc12)Cc1ccccc1` : percent inhibition (TR-FRET) is 24.8344

What the record says about `CCOC(=O)c1cnc2c(C(F)(F)F)cccc2c1NCCN1CCOCC1` : percent inhibition (TR-FRET) is 0.8341

What the record says about `CCCN(CCCNc1c2ccc(Cl)cc2nc2ccc(OC)cc12)Cc1cc(OC)ccc1O` : percent inhibition (TR-FRET) is -150.831

What the record says about `CCN1CCN(c2c(S(=O)(=O)c3ccccc3)cnc3ccc(OC)cc23)CC1` : percent inhibition (TR-FRET) is 0.1242

What the record says about `COc1ccc2ncc(S(=O)(=O)c3ccccc3)c(N3CCN(c4cccc(C)c4C)CC3)c2c1` : percent inhibition (TR-FRET) is -241.81

What the record says about `CCOC(=O)c1cnc2c(ccc3ccccc32)c1NCCN(C)C` : percent inhibition (TR-FRET) is 6.418

What the record says about `COc1ccc2nc3cc(Cl)ccc3c(NCCCNCc3cccc(C#N)c3)c2c1` : percent inhibition (TR-FRET) is -333.152

What the record says about C#CCOCC(O)CN1CCN(c2cc(C)nc3ccccc23)CC1 (stereo not drawn) : percent inhibition (TR-FRET) is 6.55

What the record says about `CCCN(CCCNc1c2ccc(Cl)cc2nc2ccc(OC)cc12)Cc1ccccn1` : percent inhibition (TR-FRET) is -146.21

What the record says about `Fc1ccc(CN(CCCCNc2ccnc3cc(Cl)ccc23)Cc2ccccc2)cc1` : percent inhibition (TR-FRET) is 30.2004

What the record says about `CCCN(CCCNc1c2ccc(Cl)cc2nc2ccc(OC)cc12)Cc1ccccc1F` : percent inhibition (TR-FRET) is -118.554

What the record says about `COc1ccc2nc3cc(Cl)ccc3c(NCCCNCc3ccoc3)c2c1` : percent inhibition (TR-FRET) is -299.405

What the record says about `COc1ccc(F)cc1CN(CCCCNc1ccnc2cc(Cl)ccc12)Cc1ccccc1` : percent inhibition (TR-FRET) is 20.7772

----------
I'd appreciate it if you could supply pIC50 values for the items below.
# SYSTEM_TESTED: MAGE-A11:PCF11 interaction (GST-MAGE-A11 MHD and FAM-PCF11_4) (Homo sapiens, UniProt P43364)
# Construct: GST-MAGE-A11 MHD (human MAGE-A11 MHD amino acid 218-429); made in house; host or cells: E. coli BL21(DE3)
# Sequence (P43364 218-429): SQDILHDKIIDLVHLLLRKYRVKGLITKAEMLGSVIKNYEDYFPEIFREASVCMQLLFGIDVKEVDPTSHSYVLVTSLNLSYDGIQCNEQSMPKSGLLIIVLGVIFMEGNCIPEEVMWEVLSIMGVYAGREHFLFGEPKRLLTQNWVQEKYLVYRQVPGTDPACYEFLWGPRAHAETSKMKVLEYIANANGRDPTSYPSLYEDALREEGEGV
# PROCEDURE_SUMMARY: TR-FRET dose response test of compounds for disruption of MAGE-A11:PCF11 binding
# CONDITION_DETAILS: Dose response TR-FRET screening of nine scaffold groups against MAGE-A11:PCF11; read-out: consensus IC50
# Experimental: The TR-FRET assay buffer with a formula of 50 mM Tris pH 7.5, 20 mM MgCl2, 0.1 mg/ml BSA and 1 mM DTT was freshly prepared before each experiment. […] After incubation, the fluorescent emission signals at 520 nm and 490 nm channels of individual wells were measured with a PHERAstar FS plate reader (BMG Labtech; Durham, NC, USA) by using a 340 nm excitation filter, 100 µs delay time, and 200 µs integration time. […]
Notebook: values listed as pIC50 are -log10 of the concentration (mol/L).

What the record says about `Fc1ccc(Cc2ccc3c(NCCCNCc4cccc5c4OCO5)ccnc3c2)cc1` : pIC50 is 4.37

What the record says about O=C1c2ccccc2NC(c2ccc(F)c(Br)c2)N1CCCN1CCOCC1 (centres unmarked) : pIC50 is 4.17

What the record says about `O=C1OCC(c2ccc(OC(F)F)cc2)=C1c1ccc([N+](=O)[O-])cc1` : pIC50 is 4.39

What the record says about `FC(F)(F)c1cc(-c2ccc3c(NCCCNCc4cccc5c4OCO5)ccnc3c2)cc(C(F)(F)F)c1` : pIC50 is 5.04

What the record says about `COc1cccc(CNCCCNc2ccnc3cc(Cc4ccc(C#N)cc4)ccc23)c1O` : pIC50 is 4.29

What the record says about `COc1cccc(CNCCCNc2ccnc3cc(-c4ccc(C(F)(F)F)cc4)ccc23)c1O` : pIC50 is 5.02

What the record says about `COc1ccc(F)cc1CNCCCNc1ccnc2cc(Cc3cccc(C(F)(F)F)c3)ccc12` : pIC50 is 4.65

What the record says about `Fc1ccc(Cc2ccc3c(NCCCNCc4cccc5c4OCO5)ccnc3c2)c(Cl)c1` : pIC50 is 4.69

----------
# SYSTEM_TESTED: MAGE-A11:PCF11 interaction (GST-MAGE-A11 and FAM-PCF11_4) (Homo sapiens, UniProt P43364)
# Construct: GST-MAGE-A11 MHD (human MAGE-A11 MHD amino acid 218-429); made in house; host or cells: E. coli BL21(DE3)
# Sequence (P43364 218-429): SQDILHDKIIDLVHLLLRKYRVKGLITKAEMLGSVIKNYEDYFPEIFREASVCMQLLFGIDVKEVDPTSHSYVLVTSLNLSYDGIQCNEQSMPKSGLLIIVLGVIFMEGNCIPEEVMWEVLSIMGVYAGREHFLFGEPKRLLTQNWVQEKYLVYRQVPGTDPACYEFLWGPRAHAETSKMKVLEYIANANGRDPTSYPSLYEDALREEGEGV
# PROCEDURE_SUMMARY: TR-FRET primary / single point screen at 15 µM
# Assay type: binding
# CONDITION_DETAILS: single point TR-FRET screening of 797 quinoline compounds against MAGE-A11:PCF11
READOUT_NAME: percent inhibition (TR-FRET)
I only need the number, thanks.

What the record says about `Clc1ccc2c(NCCCCN(Cc3ccccc3)Cc3cccs3)ccnc2c1` : percent inhibition (TR-FRET) is 25.0481

What the record says about `COc1ccc(N2CCN(c3c(S(=O)(=O)c4ccccc4)cnc4ccc(F)cc34)CC2)cc1` : percent inhibition (TR-FRET) is -32.8549

What the record says about `COc1ccc2nc3cc(Cl)ccc3c(NCCCNCc3cccn3C)c2c1` : percent inhibition (TR-FRET) is -402.468

What the record says about `CCCN(CCCNc1c2ccc(Cl)cc2nc2ccc(OC)cc12)Cc1ccc(-c2ccccc2[N+](=O)[O-])o1` : percent inhibition (TR-FRET) is -102.758

What the record says about `Fc1ccc(CN2CCC(Nc3ccnc4cc(Cl)ccc34)CC2)cc1` : percent inhibition (TR-FRET) is 10.6575

What the record says about `Cc1cc(C)c(CN(CCCCNc2ccnc3cc(Cl)ccc23)Cc2ccccc2)c(C)c1` : percent inhibition (TR-FRET) is 26.0268

What the record says about `COc1ccc2ncc(S(=O)(=O)c3ccccc3)c(N3CCN(c4ccc(F)cc4)CC3)c2c1` : percent inhibition (TR-FRET) is -133.117

What the record says about `CCOc1ccc2ncc(S(=O)(=O)c3ccc(C)cc3)c(N3CCN(c4ccc(F)cc4)CC3)c2c1` : percent inhibition (TR-FRET) is -11.0715

Values compiled from paper PMC7529893.
